Values compiled from patent US8148388B2.

EXPERIMENTAL_SYSTEM: Abl (h) (Homo sapiens, UniProt P00519)
Sequence (P00519 whole entry): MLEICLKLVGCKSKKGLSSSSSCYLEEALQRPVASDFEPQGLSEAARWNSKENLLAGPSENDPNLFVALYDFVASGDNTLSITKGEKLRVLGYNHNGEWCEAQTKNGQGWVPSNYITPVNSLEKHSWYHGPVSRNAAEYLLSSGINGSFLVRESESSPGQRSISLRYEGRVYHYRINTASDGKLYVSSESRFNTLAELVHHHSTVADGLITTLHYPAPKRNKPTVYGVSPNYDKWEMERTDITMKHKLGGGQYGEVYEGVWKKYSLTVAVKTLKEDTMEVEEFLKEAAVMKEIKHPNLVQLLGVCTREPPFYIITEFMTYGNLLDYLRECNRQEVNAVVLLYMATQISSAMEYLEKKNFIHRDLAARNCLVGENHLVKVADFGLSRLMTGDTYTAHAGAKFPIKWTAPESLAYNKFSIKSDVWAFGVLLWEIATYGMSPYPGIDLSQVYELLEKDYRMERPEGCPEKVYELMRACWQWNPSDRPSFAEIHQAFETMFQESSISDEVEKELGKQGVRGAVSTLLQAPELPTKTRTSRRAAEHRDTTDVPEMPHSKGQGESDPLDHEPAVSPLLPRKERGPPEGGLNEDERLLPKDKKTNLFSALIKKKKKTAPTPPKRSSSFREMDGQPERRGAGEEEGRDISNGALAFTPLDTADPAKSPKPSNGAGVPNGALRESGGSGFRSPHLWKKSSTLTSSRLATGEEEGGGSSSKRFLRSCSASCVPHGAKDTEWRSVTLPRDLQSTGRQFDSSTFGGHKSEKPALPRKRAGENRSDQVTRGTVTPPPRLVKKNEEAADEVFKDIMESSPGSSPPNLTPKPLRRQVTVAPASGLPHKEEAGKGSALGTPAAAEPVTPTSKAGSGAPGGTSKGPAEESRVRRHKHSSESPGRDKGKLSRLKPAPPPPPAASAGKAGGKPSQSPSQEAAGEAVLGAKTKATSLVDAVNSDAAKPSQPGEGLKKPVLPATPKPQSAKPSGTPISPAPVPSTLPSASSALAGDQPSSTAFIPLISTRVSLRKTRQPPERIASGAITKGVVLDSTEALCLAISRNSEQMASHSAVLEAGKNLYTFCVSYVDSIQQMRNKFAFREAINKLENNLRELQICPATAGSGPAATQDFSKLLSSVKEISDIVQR
PROTOCOL_SUMMARY: Abl human kinase assay (glass-fiber filter)
Format: biochemical
REPORTED_CONDITIONS: test concentration of 10^−6M; read-out: C1 score (inhibition of Abl human)
Below, each entry is listed alongside its reported inhibition at 1 µM.

The examples below pair each entry with its known result.
O=C1COc2cccc(c2)Nc2nccc(n2)Nc2cccc(c2)CN1	10 to 30%
CC1(C)NC(=O)Cc2ccc(Cl)cc2Nc2cc(ncn2)Nc2ccc(OCCCN3CCOCC3)c(c2)OCCNC1=O	> 80%
O=C1COc2cccc(c2)Nc2nccc(n2)Nc2cccc(c2)OCCCCN1	10 to 30%

Query block: What inhibition at 1 µM value was documented for this compound, O=C1NCCCCCCOc2cccc(c2)Nc2ccnc(n2)Nc2cccc1c2 ?
Result block: 10 to 30%

Query block: Entry N#Cc1cnc2nc1Nc1cccc(c1)OCCNC(=O)c1cccc(c1)N2 please
Result block: 10 to 30%

Query block: Here is the next compound: N#Cc1cnc2nc1Nc1cccc(c1)OCCCCOc1cccc(c1)N2
Result block: 10 to 30%

Query block: // query: N#Cc1cnc2nc1Nc1cccc(c1)OCC(=O)NCCCOc1cccc(c1)N2
Result block: 10 to 30%

Query block: How about N#Cc1cnc2nc1Nc1cccc(c1)C(=O)NCCCCCOc1cccc(c1)N2 ?
Result block: 10 to 30%

Query block: Let us now turn to COc1ccc2cc1OCCNC(=O)CNC(=O)Cc1ccc(Cl)cc1Nc1cc(ncn1)N2
Result block: > 80%
